From: PubChem BioAssay (NCI)

# System: LOX IMVI melanoma
# protocolSummary: NCI-60 one-dose screen, 48 h (100 = growth as untreated, 0 = no growth, -100 = all killed)
# runConditions: 10 µM
# Protocol: Growth inhibition of the LOX IMVI human tumor cell line is measured as a screen for anti-cancer activity. Cells are grown in 96 well plates and exposed to the test compound for 48 hours. Compounds are tested at a single concentration, which is 10^-5 M for most compounds. The reported endpoint is percent growth (GI% or GIPRCNT), where numbers from 0 - 100% represent growth inhibition, and numbers from -100% - 0 represent cell death. For example, a value of 40 represents 60% growth inhibition. […]
Compounds without any hit were thinned out: in the full panel of roughly 83,000, 20% have a hit.
Field: label. Allowed values: TRUE (growth < 40%) or FALSE (growth >= 40%).

Worked examples, 9 compounds total:
>>> categorylabel("CCOC(=O)c1ccoc1")
"FALSE"
>>> categorylabel("Oc1[nH]c2ccc(Cl)cc2c1/C=c1/ccc2c(c1)N=C(c1cccs1)N=2")
"FALSE"
>>> categorylabel("CN(C)N=Nc1nn(C(=O)Nc2ccc(Cc3ccccc3)cc2)c2ccccc12")
"TRUE"
>>> categorylabel("CC(=O)CSC(C)=O")
"FALSE"
>>> categorylabel("CC1(C)OC2=C(CC1Br)C(=O)C(=O)c1ccccc12 (stereo not given)")
"TRUE"
>>> categorylabel("O=C(/C=C/c1cc2ccccc2[nH]c1=O)c1ccc2c(c1)OCO2")
"FALSE"
>>> categorylabel("COc1ccc(-c2cc(-c3ccc(N(C)C)cc3)c(C#N)c(N3CCCC3)n2)cc1")
"TRUE"
>>> categorylabel("CC(=O)c1nc2ccccc2n1CCN1CCN(C)CC1")
"TRUE"
>>> categorylabel("CC/C(=C(/c1ccc(OCCN(C)C)cc1)c1ccc(OC(=O)CCCCCCCCC(=O)c2c(C)[nH]c(/C=C3\\N=C(c4ccc[nH]4)C=C3OC)c2C)cc1)c1ccccc1")
"TRUE"

Criterion: growth strictly below 40%. Is it met by CC/C(=C(/c1ccc(OCCN(C)C)cc1)c1ccc(OC(=O)CCC(=O)c2c(C)[nH]c(/C=C3\N=C(c4ccc[nH]4)C=C3OC)c2C)cc1)c1ccccc1 ?
TRUE

###

# Tested on: OVCAR-3 ovarian
# protocolSummary: NCI-60 one-dose screen, 48 h (100 = growth as untreated, 0 = no growth, -100 = all killed)
# runConditions: 10 µM
About 83,000 compounds went through this panel and 20% of them were active in at least one assay; those are over-represented in the sample as a whole.
Documented growth across a set of molecules
Please reply with the bare figure in % and do not write the unit itself.

Please review the following examples before continuing.
>>> quantitativereadout("CN(C)CC(O)c1ccc2cc(Br)c3ccccc3c2c1 (stereo not given)")
81
>>> quantitativereadout("C#Cc1ccc(-n2c(/C=C/c3ccc(Cl)c(F)c3)nc3ncccc3c2=O)cc1")
-79.8
>>> quantitativereadout("O=c1oc2cc(OS(=O)(=O)c3ccccc3)ccc2c2c1CCCCC2")
81.5
>>> quantitativereadout("O=C(Nc1cccc(-n2cc(-c3ccncc3)c(-c3ccc(O)c(Cl)c3)n2)c1)c1cccc(C(F)(F)F)c1")
45.1

Value lookup for growth; key = COc1cc([C@@H]2c3cc4c(cc3C(Br)[C@H]3COC(=O)[C@H]23)OCO4)cc(OC)c1OC (stereo not given in full)
-81.5

Another: COc1ccc2c(c1)/C(=C\c1c[nH]c3ccc(OC)cc13)C(=O)N2
52.6

Also COc1ccc(C(=O)/C=C/c2cc(-c3cc(OC)c(OC)c(OC)c3)n[nH]2)cc1 , if possible.
11.1

###

# Test system: SK-OV-3 ovarian
# protocolSummary: NCI-60 one-dose screen, 48 h (100 = growth as untreated, 0 = no growth, -100 = all killed)
# runConditions: 10 µM
This is part of a sample that, as a whole, favours compounds with a hit. Of some 83,000 tested, about 20% had one in any assay. Activity calls are given as the source filed them. How the source made its calls: active means growth percent below 10; inactive means the rest.
endpoint: growth

>>> result("Nc1c(C(=O)Nc2ccccc2Cl)sc2nc3c(cc12)C(=O)CCC3")
"13.8% (inactive)"

We now examine a further compound.
Fill blank: measured growth of the compound O=C(Nc1cccc(-n2cc(-c3ccncc3)c(-c3cc(O)cc(Cl)c3)n2)c1)Nc1ccc(Cl)c(C(F)(F)F)c1 is ____.
63.1% (inactive)

###

# System: HCC-2998 colon
# protocolSummary: NCI-60 one-dose screen, 48 h (100 = growth as untreated, 0 = no growth, -100 = all killed)
# runConditions: 10 µM
# Experimental: Growth inhibition of the HCC-2998 human tumor cell line is measured as a screen for anti-cancer activity. Cells are grown in 96 well plates and exposed to the test compound for 48 hours. Compounds are tested at a single concentration, which is 10^-5 M for most compounds. The reported endpoint is percent growth (GI% or GIPRCNT), where numbers from 0 - 100% represent growth inhibition, and numbers from -100% - 0 represent cell death. For example, a value of 40 represents 60% growth inhibition. […]
This is part of a sample that, as a whole, favours compounds with a hit. Of some 83,000 tested, about 20% had one in any assay.
Listed here are compounds together with their documented growth.
Reply numerically in %, unit not repeated.

Can you look up the measured growth of COc1cc(-c2nnc(-c3c(-c4ccc(F)cc4)nc4ccccn34)o2)cc(OC)c1OC for me?
105

Thanks! And COc1ccc(Nc2nc3ccc(NC(=O)NC4CCCCC4)cc3[nH]c2=O)cc1 ?
104

Same question for Cc1occc1-c1nnc(SCC(=O)c2ccc(NC(=O)CC(C)C)cc2)o1 please.
74.5

Here is the next compound: O=c1cc(-c2ccccc2)[nH]n1-c1nc2ccccc2[nH]1
59.3

// next record COc1ccc(Oc2nc(NC3CCCC3)nc(Sc3ccc(OC)cc3)n2)cc1
98.8

###

# Test system: IGROV1 ovarian
# protocolSummary: NCI-60 one-dose screen, 48 h
# runConditions: 10 µM
Compounds without any hit were thinned out: in the full panel of roughly 83,000, 20% have a hit. The source made the active and inactive calls. The calls were made as follows: active = growth percent below 10; inactive = the rest.
Valid outcomes are listed here; reply with one: active, inactive

Test call, this compound: Cn1c(C(N)=O)cc2c1-c1nc(Nc3ccccc3)ncc1CCC2
inactive

How about this compound: O=C(Nc1cccc(-n2cc(-c3ccncc3)c(-c3ccc(O)c(Cl)c3)n2)c1)Nc1cccc(C(F)(F)F)c1
active

Record: C(CCCC1=NCCO1)CCCC1=NCCO1
inactive

Queued: COc1cc(-c2cc(/C=C/C(=O)c3ccc(F)c(F)c3)[nH]n2)cc(OC)c1OC
inactive

Here is the next compound: COc1ccc2c(c1)C(=O)c1c-2c(OCCN(C)C)nc2ccccc12
active

Again, but for COc1cc(C(=C2O[C@@H]([C@H]3COC(C)(C)O3)[C@H]3OC(C)(C)O[C@@H]23)c2cc(OC)c(OC)c(OC)c2)cc(OC)c1OC
inactive

Moving on to CC/C(=C(/c1ccc(OCCN(C)C)cc1)c1ccc(OC(=O)CCCCC(=O)c2c(C)[nH]c(/C=C3\N=C(c4ccc[nH]4)C=C3OC)c2C)cc1)c1ccccc1
inactive

Entry Cc1[nH]nc2c1C(c1cnn(C)c1)C(C#N)=C(N)O2 (stereo not given) please
inactive

Quick one: O=C(Cc1csc2nc(-c3ccc(Cl)cc3)cn12)N/N=C/c1ccccc1O
inactive

Could you do the same for COc1cc(OC)cc(-c2cncn2-c2ccc(-c3nc4cc(OC)cc(OC)c4s3)cc2)c1 , please?
inactive

O=C(Nc1cccc(Br)c1)c1cc(=O)[nH]c2ccccc12 , same question.
inactive

One more compound: Cc1nc2ccccc2c(N)c1-c1cc(C)c2c(C)nc3ccccc3c2n1
active

// query: Nc1ncnc2[nH]c(=O)[nH]c12
inactive

How about this compound: COc1ccc(-c2cc(-c3ccc(N(C)C)cc3)c(C#N)c(N3CCCC3)n2)cc1
inactive

Now try COc1ccc2c(c1)sc1nc(-c3ccccc3)c(-c3ccc(O)c(OC)c3)n12 .
inactive

Let us now turn to O=C1/C(=C\c2ccc(Cl)cc2)CN(C(=S)Nc2ccccc2)C/C1=C\c1ccc(Cl)cc1
active

Consider next the compound CC(=O)c1cc(Br)ccc1O in the same way.
inactive

Follow-up entry: COc1ccc(-c2nn(-c3cccc(NC(=O)Nc4ccc(Cl)c(C(F)(F)F)c4)c3)cc2-c2ccncc2)cc1Cl
inactive

Likewise for COc1ccc2c(c1)C(=O)c1c-2c(=O)n(CCCN(C)C)c2cc(OC)c(OC)cc12 ?
inactive

And what about the compound COc1ccc(S(=O)(=O)Nc2c(/C=C\c3cc(OC)c(OC)c(OC)c3)ccc(OC)c2O)cc1 ?
inactive

###

Each entry below carries its recorded growth.
# System: A498 renal
# protocolSummary: NCI-60 one-dose screen, 48 h (100 = growth as untreated, 0 = no growth, -100 = all killed)
# runConditions: 10 µM
Compounds without any hit were thinned out: in the full panel of roughly 83,000, 20% have a hit.
// note: answer is a bare numeric in %

Reference set, count: 3
>>> quantitativereadout("N#CC1=C(Nc2ccccc2Cl)SC(c2ccccc2O)NC1=O (centres undefined)")
95.2
>>> quantitativereadout("COC(=O)[C@@H]1[C@H](O)[C@H](C)[C@H](O)[C@@](C)(O)/C=C\\C=C(C)C(=O)Nc2c(C)c(OC(C)=O)c3c(c2O)C(=O)C(C)=C2OCOC(=C23)C(C)=C[C@@](C)(O)[C@H](O)[C@@H](C)[C@H]1OC(C)=O")
120
>>> quantitativereadout("Cc1nc2c(c(=O)[nH]1)OCN(Cc1ccccc1)C2")
75.5

Now consider the entry below.
Field request: growth | item: NC(=S)N=Nc1c(O)c2ccccc2c2ccccc12
101
